For each of the variants below, state its protein stability index.
B1: MLL5 (parent)
chain: HDDGYMICCDKCSVWQHIDCMGID

# Variants of: B1
# assay notes: protein stability index of a GFP-peptide fusion (GPS, HEK-293T) (PSI 1-6); higher = more stable;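 note: lentivirally expressed fusions sorted by FACS into six bins by GFP to DsRed ratio, PSI derived from sequencing read proportions per bin multiplied by bin number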
# test parameters: c terminus: a fixed tail appended
Simply state the number, no unit and no words.

Looking for the measured protein stability index of "V14R" , can you help?
2.77

Try "H1L" next.
2.47

Try "I23G" next.
2.95

Try "D24R" next.
1.93

Try "C9E" next.
3.42

Try "C20H" next.
2.12

Try "K11F" next.
1.05

Try "H17K" next.
1.52

Try "D24Y" next.
1.61

Try "D24P" next.
2

Try "I7C" next.
3.79

Try "I7R" next.
2.45

Try "W15V" next.
3.59

Try "C12F" next.
1.76

Try "C8G" next.
2.59

Try "I18V" next.
1.99

Try "I18E" next.
3.5
